- Assay target: T1, human CTLA4 expressed on CHO cells (human, UniProt P16410 36-223)
- T1 construct: whole, on cells; Target on CHO cells stably expressing CTLA4; also called huCTLA4
- T1 sequence (P16410 36-223): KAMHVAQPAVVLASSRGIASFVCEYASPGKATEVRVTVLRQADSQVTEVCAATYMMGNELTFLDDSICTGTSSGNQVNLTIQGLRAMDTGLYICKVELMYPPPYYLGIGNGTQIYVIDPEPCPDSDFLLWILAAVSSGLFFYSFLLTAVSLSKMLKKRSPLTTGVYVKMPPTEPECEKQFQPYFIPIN
- Procedure text: flow cytometry, CHO cells stably expressing CTLA4, Fc fusion at 33.3 nM

- Binder: "CD80 E35D/D46V/M47V/V68M/L85Q IgV-Fc (Fc fusion, not shown: small tags and cut ends; a dimerising Fc or GST) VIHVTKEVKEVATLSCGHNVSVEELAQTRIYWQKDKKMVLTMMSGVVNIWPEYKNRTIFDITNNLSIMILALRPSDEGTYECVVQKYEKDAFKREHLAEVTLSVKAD"
  MFI at 33.3 nM: "36500 MFI"
- Binder: "CD80 N48K/K89N IgV-Fc (Fc fusion, not shown: small tags and cut ends; a dimerising Fc or GST) VIHVTKEVKEVATLSCGHNVSVEELAQTRIYWQKEKKMVLTMMSGDMKIWPEYKNRTIFDITNNLSIVILALRPSDEGTYECVVLKYENDAFKREHLAEVTLSVKAD"
  MFI at 33.3 nM: "4370 MFI"
- Binder: "CD80 E35D/M47V/N48K/V68M/K89N IgV-Fc (Fc fusion, not shown: small tags and cut ends; a dimerising Fc or GST) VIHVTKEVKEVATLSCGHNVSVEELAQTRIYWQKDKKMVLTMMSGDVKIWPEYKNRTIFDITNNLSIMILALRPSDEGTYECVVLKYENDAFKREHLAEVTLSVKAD"
  MFI at 33.3 nM: "20900 MFI"
- Binder: "CD80 E35D/V68M/K89N IgV-Fc (Fc fusion, not shown: small tags and cut ends; a dimerising Fc or GST) VIHVTKEVKEVATLSCGHNVSVEELAQTRIYWQKDKKMVLTMMSGDMNIWPEYKNRTIFDITNNLSIMILALRPSDEGTYECVVLKYENDAFKREHLAEVTLSVKAD"
  MFI at 33.3 nM: "24800 MFI"
- Binder: "CD80 N48K/V68M IgV-Fc (Fc fusion, not shown: small tags and cut ends; a dimerising Fc or GST) VIHVTKEVKEVATLSCGHNVSVEELAQTRIYWQKEKKMVLTMMSGDMKIWPEYKNRTIFDITNNLSIMILALRPSDEGTYECVVLKYEKDAFKREHLAEVTLSVKAD"
  MFI at 33.3 nM: "2340 MFI"
- Binder: "CD80 E35D/D46V/M47V/N48K/V68M IgV-Fc (Fc fusion, not shown: small tags and cut ends; a dimerising Fc or GST) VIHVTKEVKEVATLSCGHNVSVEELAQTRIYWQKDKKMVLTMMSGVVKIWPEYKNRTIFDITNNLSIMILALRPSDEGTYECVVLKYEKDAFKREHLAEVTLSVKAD"
  MFI at 33.3 nM: "23900 MFI"
- Binder: "CD80 E35D/M47V/N48K/V68M IgV-Fc (Fc fusion, not shown: small tags and cut ends; a dimerising Fc or GST) VIHVTKEVKEVATLSCGHNVSVEELAQTRIYWQKDKKMVLTMMSGDVKIWPEYKNRTIFDITNNLSIMILALRPSDEGTYECVVLKYEKDAFKREHLAEVTLSVKAD"
  MFI at 33.3 nM: "32900 MFI"
- Binder: "CD80 E35D/N48K/V68M IgV-Fc (Fc fusion, not shown: small tags and cut ends; a dimerising Fc or GST) VIHVTKEVKEVATLSCGHNVSVEELAQTRIYWQKDKKMVLTMMSGDMKIWPEYKNRTIFDITNNLSIMILALRPSDEGTYECVVLKYEKDAFKREHLAEVTLSVKAD"
  MFI at 33.3 nM: "33600 MFI"
- Binder: "CD80 E35D/M47V/N48K/K89N IgV-Fc (Fc fusion, not shown: small tags and cut ends; a dimerising Fc or GST) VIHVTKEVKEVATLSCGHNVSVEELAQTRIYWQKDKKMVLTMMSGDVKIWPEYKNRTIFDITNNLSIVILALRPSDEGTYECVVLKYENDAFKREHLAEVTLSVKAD"
  MFI at 33.3 nM: "43800 MFI"
- Binder: "CD80 E35D/M47V/N48K/V68M/L85Q IgV-Fc (Fc fusion, not shown: small tags and cut ends; a dimerising Fc or GST) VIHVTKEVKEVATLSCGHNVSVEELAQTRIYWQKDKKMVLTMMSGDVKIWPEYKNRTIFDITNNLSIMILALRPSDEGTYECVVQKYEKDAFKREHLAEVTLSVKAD"
  MFI at 33.3 nM: "26100 MFI"
- Binder: "CD80 E35D/M47V/N48K IgV-Fc (Fc fusion, not shown: small tags and cut ends; a dimerising Fc or GST) VIHVTKEVKEVATLSCGHNVSVEELAQTRIYWQKDKKMVLTMMSGDVKIWPEYKNRTIFDITNNLSIVILALRPSDEGTYECVVLKYEKDAFKREHLAEVTLSVKAD"
  MFI at 33.3 nM: "47400 MFI"
- Binder: "CD80 V68M/K89N IgV-Fc (Fc fusion, not shown: small tags and cut ends; a dimerising Fc or GST) VIHVTKEVKEVATLSCGHNVSVEELAQTRIYWQKEKKMVLTMMSGDMNIWPEYKNRTIFDITNNLSIMILALRPSDEGTYECVVLKYENDAFKREHLAEVTLSVKAD"
  MFI at 33.3 nM: "2330 MFI"
- Binder: "CD80 E35D/N48K/K89N IgV-Fc (Fc fusion, not shown: small tags and cut ends; a dimerising Fc or GST) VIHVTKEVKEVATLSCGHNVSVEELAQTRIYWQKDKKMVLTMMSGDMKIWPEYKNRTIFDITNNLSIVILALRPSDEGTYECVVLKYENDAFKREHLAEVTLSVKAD"
  MFI at 33.3 nM: "34700 MFI"
- Binder: "CD80 E35D/M47V/V68M/L85Q/K89N IgV-Fc (Fc fusion, not shown: small tags and cut ends; a dimerising Fc or GST) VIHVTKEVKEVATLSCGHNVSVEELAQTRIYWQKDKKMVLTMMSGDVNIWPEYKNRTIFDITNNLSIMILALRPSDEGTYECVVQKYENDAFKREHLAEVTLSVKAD"
  MFI at 33.3 nM: "30300 MFI"
- Binder: "CD80 E35D/M47V/V68M/K89N IgV-Fc (Fc fusion, not shown: small tags and cut ends; a dimerising Fc or GST) VIHVTKEVKEVATLSCGHNVSVEELAQTRIYWQKDKKMVLTMMSGDVNIWPEYKNRTIFDITNNLSIMILALRPSDEGTYECVVLKYENDAFKREHLAEVTLSVKAD"
  MFI at 33.3 nM: "29500 MFI"
- Binder: "CD80 M47V/N48K/K89N IgV-Fc (Fc fusion, not shown: small tags and cut ends; a dimerising Fc or GST) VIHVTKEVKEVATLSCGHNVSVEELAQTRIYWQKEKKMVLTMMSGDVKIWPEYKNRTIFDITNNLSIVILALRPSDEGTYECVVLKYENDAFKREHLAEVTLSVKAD"
  MFI at 33.3 nM: "42100 MFI"
